Measured IC50 values are reported for all entries that follow.
- Tested Target: RET V804L (Homo sapiens, UniProt P07949, V804L)
- Construct: purchased ProQinase 1096-0000-1
- Sequence (P07949 29-1114 V804L): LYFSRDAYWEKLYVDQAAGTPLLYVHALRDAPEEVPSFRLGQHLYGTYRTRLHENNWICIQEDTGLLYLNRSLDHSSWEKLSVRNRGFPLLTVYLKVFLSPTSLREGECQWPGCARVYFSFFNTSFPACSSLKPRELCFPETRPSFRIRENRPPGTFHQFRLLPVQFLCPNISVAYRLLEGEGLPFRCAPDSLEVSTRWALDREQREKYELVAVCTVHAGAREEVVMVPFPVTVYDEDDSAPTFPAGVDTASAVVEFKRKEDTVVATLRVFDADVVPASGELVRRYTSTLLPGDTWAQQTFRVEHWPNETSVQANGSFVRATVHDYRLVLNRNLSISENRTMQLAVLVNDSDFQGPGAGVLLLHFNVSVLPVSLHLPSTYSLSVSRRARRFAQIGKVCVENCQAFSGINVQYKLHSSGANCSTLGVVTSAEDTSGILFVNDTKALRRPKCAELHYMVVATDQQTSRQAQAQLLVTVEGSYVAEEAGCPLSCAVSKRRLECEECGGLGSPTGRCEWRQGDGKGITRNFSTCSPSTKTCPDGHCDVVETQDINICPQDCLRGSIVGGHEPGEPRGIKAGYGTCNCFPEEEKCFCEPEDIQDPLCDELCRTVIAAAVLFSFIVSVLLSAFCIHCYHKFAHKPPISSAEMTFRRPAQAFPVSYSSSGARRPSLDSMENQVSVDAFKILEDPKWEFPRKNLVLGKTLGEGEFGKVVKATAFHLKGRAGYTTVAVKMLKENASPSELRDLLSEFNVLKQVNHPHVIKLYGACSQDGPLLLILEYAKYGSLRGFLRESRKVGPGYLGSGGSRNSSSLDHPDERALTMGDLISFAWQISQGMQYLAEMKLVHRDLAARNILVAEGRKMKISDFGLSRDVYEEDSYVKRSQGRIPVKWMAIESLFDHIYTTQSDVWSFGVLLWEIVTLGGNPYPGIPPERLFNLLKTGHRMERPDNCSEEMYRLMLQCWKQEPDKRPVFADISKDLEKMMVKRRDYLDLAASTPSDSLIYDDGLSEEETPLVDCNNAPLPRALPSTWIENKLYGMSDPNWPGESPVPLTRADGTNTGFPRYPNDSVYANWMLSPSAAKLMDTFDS
- Experiment Notes: RET V804L Gatekeeper Mutant Assay at KM (Caliper electrophoretic mobility shift)
- Type: biochemical
- Settings: 10 μM ATP, 25° C., 120 minutes
Quantity Kind: IC50

Cc1cc(Nc2cc(C)[nH]n2)nc([C@]2(O)CC[C@@H](C(=O)N[C@@H](C)c3cnc(-n4cc(F)cn4)cn3)C2)c1 :: < 10 nM
Cc1cc(Nc2cc(C)[nH]n2)nc([C@@]2(O)CC[C@@H](C(=O)NCc3ccc(-n4cccn4)nc3)C2)c1 :: < 10 nM
Cc1cc(Nc2cc(C)[nH]n2)nc([C@H]2CC[C@](C)(C(=O)N[C@@H](C)c3ccc(-n4cc(F)cn4)nc3)C2)n1 :: < 10 nM
Cc1cc(Nc2cc(C)[nH]n2)nc([C@@]2(O)CC[C@H](C(=O)NCc3ccc(-n4cccn4)nc3)C2)c1 :: < 10 nM
Cc1cc(Nc2cc(C3CC3)[nH]n2)nc([C@@]2(O)CC[C@H](C(=O)NCc3ccccc3)C2)c1 :: < 10 nM
Cc1cc(Nc2cc(C)[nH]n2)nc(C2(O)CCC(C(=O)NCc3ccc(-n4cc(Cl)cn4)nc3)C2)c1 (mixture of isomers) :: < 10 nM
Cc1cc(Nc2cc(C)[nH]n2)nc([C@@]2(O)CC[C@H](C(=O)N[C@@H](C)c3ccc(-n4cc(F)cn4)nc3)C2)c1 (single isomer, unassigned) :: < 10 nM
Cc1cc(Nc2cc(C)[nH]n2)nc([C@@]2(O)CC[C@@H](C(=O)N[C@@H](C)c3ccc(-n4cc(F)cn4)nc3)C2)c1 :: < 10 nM
Cc1cc(Nc2cc(C)[nH]n2)nc([C@@H]2CC[C@@H](C(=O)N[C@@H](C)c3ccc(-n4cc(F)cn4)nc3)C2)n1 (single isomer, unassigned) :: < 10 nM
Cc1cc(Nc2cc(C)[nH]n2)nc([C@]2(O)CC[C@@H](C(=O)NCc3ccc(-n4cccn4)nc3)C2)c1 :: < 10 nM
Cc1cc(Nc2cc(C)[nH]n2)nc([C@]2(O)CC[C@H](C(=O)N[C@@H](C)c3ccc(-n4cc(F)cn4)nc3)C2)c1 :: 10 to 100 nM
Cc1cc(Nc2cc(C)[nH]n2)nc(C2(O)CCC(C(=O)N[C@@H](C)c3cnc(-n4cc(F)cn4)cn3)C2)c1 (mixture of isomers) :: < 10 nM
